- assay_method_text: cytotoxicity in HPDE-C7 cells, cell-based, fluorescence, HTS (AID 430);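 further: cells exposed to compound for 48 hours before viability readout; 0% = vehicle and 100% = reference cytotoxic drug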
- test_parameters: HPDE-C7 pancreatic duct cells viability, at 10 µM, stronger effect = higher value
The campaign covered roughly 63,000 compounds. About 1,100 (1.7%) were called active. Many of the other results were omitted from the sample, so actives are more common in it than they were. Measured potencies and affinities stand elsewhere.
recorded_endpoint: cytotoxicity (%)
Write down the numeric answer in % and omit the unit.

INSERT INTO assay_data (compound, assay_value) VALUES
  ('CCCc1cc(=O)[nH]c(SC(CC)C(=O)Nc2ccccc2C#N)n1 (stereo unspecified)', -23.8),
  ('CCOc1ccc(S(=O)(=O)Nc2cccc(Cl)c2)cc1', 57.6),
  ('CCOC(=O)C1=C(C)NC(SCC(=O)Nc2nc(C)cs2)=C(C#N)C1c1cccs1 (stereo unspecified)', 78.9),
  ('CCC(=O)Nc1ccc(OC)cc1OC', -0.9),
  ('CCN(CC)C(=O)CSc1nnc(-c2cccs2)n1Cc1ccco1', 17.7);

# input // lookup cytotoxicity for CCOC(=O)C1=C(C)NC(SCc2cc(=O)[nH][nH]2)=C(C#N)C1c1cccs1 (stereo unspecified)
# output 37.1

# input And for CCOc1ccc(S(=O)(=O)Nc2cc(Cl)ccc2O)cc1 ?
# output 67.2

# input And for CCOc1ccc(CN(CCO)CCO)cc1C(=O)OC ?
# output -17

# input And for CCOc1ccc(NS(=O)(=O)c2ccc(NS(C)(=O)=O)cc2)cc1 ?
# output -4.7

# input And for CC1(C)Cc2c(sc3c2c(=N)n(Cc2ccco2)c(=O)n3Cc2ccc(F)cc2)CO1 ?
# output 5.6

# input And for CCOc1ccc(NS(=O)(=O)c2cc(Cl)ccc2OC)cc1 ?
# output -8.2

----------
Each entry below carries its recorded cytotoxicity.
- assay_method_text: cytotoxicity in HPDE-C7 cells, cell-based, fluorescence, HTS (AID 430);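 further: cells exposed to compound for 48 hours before viability readout; 0% = vehicle and 100% = reference cytotoxic drug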
- test_parameters: HPDE-C7 pancreatic duct cells viability, at 10 µM, stronger effect = higher value
Out of some 63,000 compounds screened, about 1,100 (1.7%) were called active. This is one part of a sample in which actives are shown more often than they occur. Potency and affinity values are given separately.
Write down the numeric answer in % and omit the unit.

# input // lookup cytotoxicity for COc1ccc(OC)c(Nc2nc(-c3sc(C)nc3C)cs2)c1
# output 7.9

# input And for CCn1cc(C(=O)NCCCN(C)c2ccccc2)c(=O)c2cc(S(=O)(=O)N(C)C)ccc21 ?
# output 10.5

# input And for COCCNC(=O)C(c1ccc(Cl)cc1)N(C(=O)CCC(=O)Nc1ccccn1)C1CCCC1 (centres undefined) ?
# output -1.7

# input And for CC(=O)Nc1ccc(S(=O)(=O)N(CC(=O)O)Cc2ccccc2)cc1 ?
# output -8.5

# input And for COc1ccc(-c2nnc(NC(=O)c3cc(Cl)ccc3Cl)o2)cc1 ?
# output 33.1

# input And for CC(C)(C)c1ccc(Cn2nnc3c(=O)[nH]c(C4CCN(C(=O)Cc5cccs5)CC4)nc32)cc1 ?
# output 0.2

# input And for CC1(C)c2ssc(=S)c2-c2ccccc2N1C(=O)c1ccco1 ?
# output -13.6

# input And for COc1cccc(-c2noc(CCC(=O)Nc3cccnc3)n2)c1 ?
# output 2

# input And for COc1ccc(OC)c(Nc2nc(-c3ccc(O)c(O)c3)cs2)c1 ?
# output 67.2

# input And for COc1ccc(C(O)c2coc3ccc(O)c(CN(C)C)c23)cc1 (centres undefined) ?
# output 8.4

# input And for CCN(CC)C(=O)C1CCCN(C/C(C)=C/c2ccccc2)C1 (centres undefined) ?
# output -8.8

# input And for COc1cccc(C(=O)Nc2nnc(-c3ccc(F)cc3)o2)c1 ?
# output 31

# input And for COc1cc(NC(=O)c2ccco2)c(OC)cc1NC(=O)c1cc(OC)c(OC)c(OC)c1 ?
# output 52.3

# input And for O=C(O)c1ccccc1-c1ccccc1C(=O)NCc1ccco1 ?
# output 0.7

# input And for COc1ccc(NC(C)=O)cc1NC(=O)CN1CCN(CC(=O)Nc2ccc(Cl)cc2)CC1 ?
# output -12.5

# input And for CCC(=O)OC1=C2C(=Nc3c(c(=O)n(C)c(=O)n3C)C2c2ccccc2)c2ccccc21 (centres undefined) ?
# output 0.2

# input And for O=C(NC1CCCCC1)N1CCC(n2c(=O)[nH]c3ccccc32)CC1 ?
# output -3.9
